- Method Description: Assay C: metabolic stability in human liver microsomes (human MST)
- Assay type: in vitro ADME
- Experimental Context: pooled human liver microsomes, pH 7.6, 1 µM test compound, 37°C, read-out: Assay C: Human MST t1/2
Listed next: entries and their corresponding log10(half-life at 1 µM).
Property Name: log10(half-life at 1 µM) (log10 of the value in h)

Compound | log10(half-life at 1 µM)
CCN(C(=O)c1c(F)cccc1-n1nccn1)[C@@H](C)CNc1ncc(C(F)(F)F)cn1 [Example 7] | 0.10
Cc1nc(C(=O)N(C)CCNc2ncc(Br)cn2)c(-c2ccc(F)cc2)s1 [Example 6 in WO03/051872, reference compound] | -0.88
CC[C@@H](CNc1ncc(C(F)(F)F)cn1)N(C)C(=O)c1nc(C)ccc1-n1cccn1 [Example 90 in WO2016/034882] | -0.36
CCN(C(=O)c1ccccc1-c1noc(C)n1)[C@@H](C)CNc1ncc(C(F)(F)F)cn1 [Example 14] | 0.18
CCN(C(=O)c1ccc(F)c(F)c1-n1nccn1)[C@@H](C)CNc1ncc(C(F)(F)F)cn1 [Example 4] | 0.20
CCN(C(=O)c1ccc(F)cc1-c1ncccn1)[C@@H](C)CNc1ncc(C(F)(F)F)cn1 [Example 16] | 0.22
CC[C@@H](CNc1ncc(C(F)(F)F)cn1)N(CC)C(=O)c1nc(C)ccc1-n1nccn1 [Example 73 in WO2016/034882] | -0.74
CCN(C(=O)c1cccc(F)c1-n1nccn1)[C@@H](C)CNc1cnc(C(F)(F)F)cn1 [Example 24] | 0.01
CC[C@@H](CNc1ncc(C(F)(F)F)cn1)N(C)C(=O)c1nc(C)ccc1-n1nccn1 [Example 46 in WO2016/034882] | -0.27
CCN(C(=O)c1cc(F)ccc1-n1nccn1)[C@@H](C)CNc1ncc(C(F)(F)F)cn1 [Example 5] | 0.30

---

- Assayed System: human MDR1 P-gp (Homo sapiens, UniProt P08183)
- Construct: expressed in transfected cells; host or cells: MDCK (MDCK-MDR1)
- Sequence (P08183 whole entry): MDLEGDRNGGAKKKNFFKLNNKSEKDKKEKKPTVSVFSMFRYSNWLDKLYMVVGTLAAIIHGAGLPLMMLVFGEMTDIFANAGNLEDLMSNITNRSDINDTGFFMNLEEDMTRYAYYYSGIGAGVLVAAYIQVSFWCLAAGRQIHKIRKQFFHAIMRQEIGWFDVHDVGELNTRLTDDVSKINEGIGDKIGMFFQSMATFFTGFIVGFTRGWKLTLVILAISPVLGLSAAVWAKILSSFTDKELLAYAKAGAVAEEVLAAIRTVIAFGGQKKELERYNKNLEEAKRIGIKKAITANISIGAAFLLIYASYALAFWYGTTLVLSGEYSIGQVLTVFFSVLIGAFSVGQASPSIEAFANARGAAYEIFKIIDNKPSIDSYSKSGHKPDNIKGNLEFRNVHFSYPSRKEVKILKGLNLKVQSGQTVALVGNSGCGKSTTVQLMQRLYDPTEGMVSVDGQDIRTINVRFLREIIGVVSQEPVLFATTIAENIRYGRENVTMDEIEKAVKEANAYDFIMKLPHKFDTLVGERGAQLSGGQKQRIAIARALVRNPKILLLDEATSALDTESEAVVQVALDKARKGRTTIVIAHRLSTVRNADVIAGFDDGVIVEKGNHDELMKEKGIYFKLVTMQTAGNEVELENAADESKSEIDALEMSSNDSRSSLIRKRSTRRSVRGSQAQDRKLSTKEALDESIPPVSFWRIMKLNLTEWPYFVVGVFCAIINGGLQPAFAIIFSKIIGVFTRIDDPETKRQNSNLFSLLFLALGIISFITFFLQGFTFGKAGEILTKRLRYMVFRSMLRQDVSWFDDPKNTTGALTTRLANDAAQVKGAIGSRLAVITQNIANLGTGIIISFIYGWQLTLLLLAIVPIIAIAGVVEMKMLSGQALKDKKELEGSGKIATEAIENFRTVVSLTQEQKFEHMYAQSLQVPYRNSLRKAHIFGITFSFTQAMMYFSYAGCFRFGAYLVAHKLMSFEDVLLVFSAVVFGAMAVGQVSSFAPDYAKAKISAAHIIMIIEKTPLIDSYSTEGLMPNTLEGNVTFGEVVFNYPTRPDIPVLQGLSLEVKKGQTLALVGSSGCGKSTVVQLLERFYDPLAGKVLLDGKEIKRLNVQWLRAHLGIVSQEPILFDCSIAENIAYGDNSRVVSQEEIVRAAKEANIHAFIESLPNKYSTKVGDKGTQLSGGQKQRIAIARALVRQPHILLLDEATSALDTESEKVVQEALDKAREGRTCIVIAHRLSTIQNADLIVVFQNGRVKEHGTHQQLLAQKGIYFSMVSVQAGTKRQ
- Method Description: Assay D: efflux in MDCK cells transfected with the human MDR1 gene
- Assay type: in vitro ADME
- Experimental Context: MDCK-MDR1 monolayers, pH 7.4, 37°C, read-out: Assay D:MDCK efflux ratio (BA/AB)

Smiles Structure | efflux ratio
CCN(C(=O)c1nccnc1-c1ccccc1)[C@@H](C)CNc1ncc(C(F)(F)F)cn1 | < 3
CCN(C(=O)c1c(F)cccc1-c1ncccn1)[C@@H](C)CNc1ncc(C(F)(F)F)cn1 | < 3
CCN(C(=O)c1nc(C)ccc1-n1cccn1)[C@@H](C)CNc1ncc(C(F)(F)F)cn1 | < 3
CCN(C(=O)c1ccccc1-n1nccn1)[C@@H](C)CNc1cnc(C(F)(F)F)cn1 | 3 to 5

---

- Assayed System: human MDR1 P-gp (Homo sapiens)
- Construct: expressed in transfected cells; host or cells: MDCK (MDCK-MDR1)
- Method Description: Assay D: efflux in MDCK cells transfected with the human MDR1 gene
- Format: in vitro ADME
- Experimental Context: MDCK-MDR1 monolayers, pH 7.4, 37°C, read-out: Assay D:MDCK efflux ratio (BA/AB)
# efflux ratio per entry
Property Name: efflux ratio

Smiles Structure | Property Name | Observed
CCN(C(=O)c1cccc(F)c1-n1nccn1)[C@@H](C)CNc1cnc(C(F)(F)F)cn1 | efflux ratio | 3 to 5
CC[C@@H](CNc1ncc(C(F)(F)F)cn1)N(C)C(=O)c1nc(C)ccc1-n1nccn1 | efflux ratio | < 3
CC[C@@H](CNc1ncc(C(F)(F)F)cn1)N(C)C(=O)c1nc(C)ccc1-n1cccn1 | efflux ratio | < 3
CCN(C(=O)c1cncnc1-c1ccccc1)[C@@H](C)CNc1ncc(C(F)(F)F)cn1 | efflux ratio | < 3
CCN(C(=O)c1cc(F)cnc1-n1nccn1)[C@@H](C)CNc1ncc(C(F)(F)F)cn1 | efflux ratio | < 3
CCN(C(=O)c1cc(F)ccc1-c1ncccn1)[C@@H](C)CNc1ncc(C(F)(F)F)cn1 | efflux ratio | < 3
CCN(C(=O)c1cc(C#N)ccc1-n1nccn1)[C@@H](C)CNc1ncc(C(F)(F)F)cn1 | efflux ratio | 3 to 5
CCN(C(=O)c1cccc(F)c1-c1ncccn1)[C@@H](C)CNc1ncc(C(F)(F)F)cn1 | efflux ratio | 3 to 5
CC[C@@H](CNc1cnc(C(F)(F)F)cn1)N(C)C(=O)c1cc(Cl)ccc1-n1nccn1 | efflux ratio | < 3
CCN(C(=O)c1cc(F)ccc1-n1nccn1)[C@@H](C)CNc1ncc(C(F)(F)F)cn1 | efflux ratio | < 3
CCN(C(=O)c1c(F)cccc1-n1nccn1)[C@@H](C)CNc1ncc(C(F)(F)F)cn1 | efflux ratio | < 3
CCN(C(=O)c1ccc(F)cc1-c1ncccn1)[C@@H](C)CNc1ncc(C(F)(F)F)cn1 | efflux ratio | < 3

---

- Method Description: Assay C: metabolic stability in human liver microsomes (human MST)
- Assay type: in vitro ADME
- Experimental Context: pooled human liver microsomes, pH 7.6, 1 µM test compound, 37°C, read-out: Assay C: Human MST t1/2
Property Name: half-life at 1 µM (min)

Molecule | Censoring Qualifier | Observed
CCN(C(=O)c1ncccc1-c1ccccc1)[C@@H](C)CNc1ncc(C(F)(F)F)cn1 | > | 120
C[C@@H](CNc1ccc(Cl)cn1)N(C)C(=O)c1ccccc1-c1ccccc1 [Example 14 in WO2016/034882, reference compound] | = | 2
CC[C@@H](CNc1ncc(C(F)(F)F)cn1)N(C)C(=O)c1c(F)cccc1-n1nccn1 | > | 120
CCN(C(=O)c1ccc(F)cc1-n1nccn1)[C@@H](C)CNc1ncc(C(F)(F)F)cn1 | = | 43
CC[C@@H](CNc1cnc(C(F)(F)F)cn1)N(C)C(=O)c1cc(Cl)ccc1-n1nccn1 | = | 9
CCN(C(=O)c1nc(C)ccc1-n1cccn1)[C@@H](C)CNc1ncc(C(F)(F)F)cn1 | = | 65
CC[C@@H](CNc1ncc(C(F)(F)F)cn1)N(C)C(=O)c1nc(C)ccc1-c1ncccn1 | = | 41

---

- Method Description: Assay C: metabolic stability in human liver microsomes (human MST)
- Format: in vitro ADME
- Experimental Context: pooled human liver microsomes, pH 7.6, 1 µM test compound, 37°C, read-out: Data as determined in Assay C: Human MST t1/2

Molecule | half-life at 1 µM, min
C[C@@H](Cn1ccc(-c2ccc(F)cn2)n1)N(C)C(=O)c1cc(F)ccc1-c1ncccn1 [Example 5 in WO2013/187466, reference compound] | 30
CCN(C(=O)c1nc(C)ccc1-c1ncccn1)[C@@H](C)Cn1nnc(-c2ccc(F)cc2)n1 [Example 69 in WO2013/187466, reference compound] | 23
CCN(C(=O)c1cc(F)ccc1-c1ncccn1)[C@@H](C)Cn1nnc(-c2ccc(F)cc2)n1 [Example 70 in WO2013/187466, reference compound] | 16

---

- Assayed System: human MDR1 P-gp (Homo sapiens, UniProt P08183)
- Construct: expressed in transfected cells; host or cells: MDCK (MDCK-MDR1)
- Method Description: Assay D: efflux in MDCK cells transfected with the human MDR1 gene
- Format: in vitro ADME
- Experimental Context: MDCK-MDR1 monolayers, pH 7.4, 37°C, read-out: Assay D:MDCK efflux ratio (BA/AB)
Property Name: efflux ratio

Molecule | Observed
CC[C@@H](CNc1ncc(C(F)(F)F)cn1)N(C)C(=O)c1nc(C)ccc1-c1ncccn1 [Example 84 in WO2016/034882] | < 3
CC[C@@H](CNc1ncc(C(F)(F)F)cn1)N(C)C(=O)c1c(F)cccc1-n1nccn1 [Example 91 in WO2016/034882] | < 3
CCN(C(=O)c1ccccc1-c1noc(C)n1)[C@@H](C)CNc1ncc(C(F)(F)F)cn1 [Example 14] | < 3
CCN(C(=O)c1ccc(F)cc1-c1nnc(C)o1)[C@@H](C)CNc1cnc(C(F)(F)F)cn1 [Example 23] | 3 to 5
CCN(C(=O)c1ncccc1-c1ccccc1)[C@@H](C)CNc1ncc(C(F)(F)F)cn1 [Example 19] | < 3
CCN(C(=O)c1ccc(F)c(F)c1-n1nccn1)[C@@H](C)CNc1ncc(C(F)(F)F)cn1 [Example 4] | < 3
CCN(C(=O)c1ccc(F)cc1-n1nccn1)[C@@H](C)CNc1ncc(C(F)(F)F)cn1 [Example 2] | < 3

---

- Assayed System: UniProtKB O43614
- Sequence (O43614 1-444): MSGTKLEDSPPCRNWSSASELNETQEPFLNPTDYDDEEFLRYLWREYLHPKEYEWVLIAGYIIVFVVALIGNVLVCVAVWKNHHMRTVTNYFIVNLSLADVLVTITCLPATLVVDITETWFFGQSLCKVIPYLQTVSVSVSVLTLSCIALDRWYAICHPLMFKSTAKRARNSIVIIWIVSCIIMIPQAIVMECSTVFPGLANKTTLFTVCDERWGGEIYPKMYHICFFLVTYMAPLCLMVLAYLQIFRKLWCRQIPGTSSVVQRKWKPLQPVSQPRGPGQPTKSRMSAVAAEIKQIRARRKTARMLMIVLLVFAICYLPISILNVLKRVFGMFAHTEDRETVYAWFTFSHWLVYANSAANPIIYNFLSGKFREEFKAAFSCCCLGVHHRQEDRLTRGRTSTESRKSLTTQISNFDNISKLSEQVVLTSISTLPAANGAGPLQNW
- Type: cell-based
- Experimental Context: 0.5 nM Orexin A

Molecule | Assayed System | Kb
CCN(C(=O)c1cc(F)ccc1-c1ncccn1)[C@@H](C)CNc1ncc(C(F)(F)F)cn1 [Example 15] | UniProtKB O43614 | 22.9 nM
CCN(C(=O)c1c(F)cccc1-n1nccn1)[C@@H](C)CNc1ncc(C(F)(F)F)cn1 [Example 7] | UniProtKB O43614 | 33.4 nM
CCN(C(=O)c1ccc(F)cc1-n1nccn1)[C@@H](C)CNc1ncc(C(F)(F)F)cn1 [Example 2] | UniProtKB O43614 | 64.5 nM

From: patent EP3442964B1
